Listing of entries alongside the reported scaled log2 fold change.
B1: library; numbered along this chain (parent)
chain: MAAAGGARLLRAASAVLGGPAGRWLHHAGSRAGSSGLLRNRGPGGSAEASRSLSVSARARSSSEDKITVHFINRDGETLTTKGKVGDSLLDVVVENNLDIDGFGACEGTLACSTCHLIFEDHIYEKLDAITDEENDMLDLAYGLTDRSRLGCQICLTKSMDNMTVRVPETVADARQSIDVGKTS

- Variants of: B1
- Experiment: scaled log2 fold change in cell abundance, elesclomol vs control (0 = silent mean, 1 = nonsense mean) (scaled log2 ratio); higher = higher viability under elesclomol (loss of FDX1 cuproptosis function);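 also: variant abundance is its share of total variant reads in each endpoint sample, from next-generation sequencing of the integrated ORF PCR-amplified out of genomic DNA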
- Applied conditions: with HEK293T FDX1 KO; elesclomol 40 nM; glucose 10 mM; 11 days

>  <Mutation list>
G83M

>  <scaled log2 fold change>
0.859

$$$$
>  <Mutation list>
G5L

>  <scaled log2 fold change>
-0.373

$$$$
>  <Mutation list>
D99Q

>  <scaled log2 fold change>
-1.25

$$$$
>  <Mutation list>
L98M

>  <scaled log2 fold change>
0.18

$$$$
>  <Mutation list>
L150Q

>  <scaled log2 fold change>
0.364

$$$$
>  <Mutation list>
L9D

>  <scaled log2 fold change>
-0.529

$$$$
>  <Mutation list>
D139F

>  <scaled log2 fold change>
0.819

$$$$
>  <Mutation list>
N135P

>  <scaled log2 fold change>
0.821

$$$$
>  <Mutation list>
E64Q

>  <scaled log2 fold change>
-0.107

$$$$
>  <Mutation list>
A7G

>  <scaled log2 fold change>
-0.098

$$$$
>  <Mutation list>
R51T

>  <scaled log2 fold change>
0.546

$$$$
